tested on: HCT-116 colon; experiment: NCI tumour cell line growth inhibition, 48 h
PROPERTY_NAME: TGI

[in] Quick check: TGI on HCT-116 colon, item `COC(=O)[C@H](CC(C)C)Nc1c(O)c2c(c(O)c1Cl)C(=O)C=CC2=O` ?
[out] 5.35 µM

[in] Try this molecule too: `N/N=c1\c2ccccc2c2cc3c(cc12)/c(=N/N)c1ccccc13`
[out] > 100 µM

[in] Try this molecule too: `Ic1cc2c(cc1C1SCCCS1)OCO2`
[out] > 100 µM

---

test system: BT-549 breast; assay: NCI tumour cell line growth inhibition, 48 h
PROPERTY_NAME: TGI

[in] Need TGI of `COc1ccc(C(=O)/C=C/c2ccc(OCCSCCCCCCCCCCSCCOc3ccc(/C=C/C(=O)c4ccc(OC)c(OC)c4)cc3)cc2)cc1OC` , thanks.
[out] > 100 µM

[in] Try this molecule too: `O=c1cn[nH]c(=S)n1/N=C/c1c[nH]c2ccccc12`
[out] > 100 µM

[in] Try this molecule too: `Fc1ccc(-c2sc(-c3cccs3)cc2Cc2cccs2)cc1`
[out] > 100 µM

[in] Try this molecule too: `O=C1C=CC(=O)c2c1ccc1c3ccccc3n(Cc3cccc([N+](=O)[O-])c3)c21`
[out] > 69.7 µM

[in] Try this molecule too: `COc1ccc(/C=C/C(=O)c2ccc(OC)c(OC)c2)cc1O`
[out] 17.4 µM
